# System: U251 CNS
# Measurement description: NCI-60 one-dose screen, 48 h
# Experimental context: 10 µM
About 83,000 compounds went through this panel and 20% of them were active in at least one assay; those are over-represented in the sample as a whole. Calls of active or inactive are those of the source. The calls were made as follows: active = growth percent below 10; inactive = the rest.
Pick from y for active, n for inactive when you respond.

The following molecules have reported results that may help.
# Molecule, Class name
records = [
    ("CN(C)CC(O)c1ccc2cc(Br)c3ccccc3c2c1 (centres undefined)", "n"),
    ("CCOC(=O)c1ccoc1", "n"),
    ("CC/C(C)=C(\\C)C(=O)O", "n"),
    ("O=C(Nc1ccc(Cl)cc1)N1NC(c2ccc(Cl)cc2)C=C1c1ccccc1 (centres undefined)", "n"),
    ("CC/C(=C(/c1ccc(OCCN(C)C)cc1)c1ccc(OC(=O)CCCCCCCCC(=O)c2c(C)[nH]c(/C=C3\\N=C(c4ccc[nH]4)C=C3OC)c2C)cc1)c1ccccc1", "n"),
]

Please look at the following molecule next.
// query Would you mind telling me which call this test gave "COc1cc2cc3c(nc2cc1OC)CCN3Cc1ccc(NC(=O)Nc2cc(C(F)(F)F)cc(C(F)(F)F)c2)cc1" ?
// result n
